Entry source: patent US20260365670A1

target: EGFR L858R/T790M (Homo sapiens, UniProt P00533, L858R/T790M); construct: purchased Carna Bio; experiment: Inhibition of EGFR L858R/T790M biochemical enzymatic activity (HTRF); conditions: EGFR L858R/T790M, 1 mM ATP, 1 h at room temperature, read-out: IC50 @L858R-T790M
Sequence (P00533 25-1210 T790M/L858R): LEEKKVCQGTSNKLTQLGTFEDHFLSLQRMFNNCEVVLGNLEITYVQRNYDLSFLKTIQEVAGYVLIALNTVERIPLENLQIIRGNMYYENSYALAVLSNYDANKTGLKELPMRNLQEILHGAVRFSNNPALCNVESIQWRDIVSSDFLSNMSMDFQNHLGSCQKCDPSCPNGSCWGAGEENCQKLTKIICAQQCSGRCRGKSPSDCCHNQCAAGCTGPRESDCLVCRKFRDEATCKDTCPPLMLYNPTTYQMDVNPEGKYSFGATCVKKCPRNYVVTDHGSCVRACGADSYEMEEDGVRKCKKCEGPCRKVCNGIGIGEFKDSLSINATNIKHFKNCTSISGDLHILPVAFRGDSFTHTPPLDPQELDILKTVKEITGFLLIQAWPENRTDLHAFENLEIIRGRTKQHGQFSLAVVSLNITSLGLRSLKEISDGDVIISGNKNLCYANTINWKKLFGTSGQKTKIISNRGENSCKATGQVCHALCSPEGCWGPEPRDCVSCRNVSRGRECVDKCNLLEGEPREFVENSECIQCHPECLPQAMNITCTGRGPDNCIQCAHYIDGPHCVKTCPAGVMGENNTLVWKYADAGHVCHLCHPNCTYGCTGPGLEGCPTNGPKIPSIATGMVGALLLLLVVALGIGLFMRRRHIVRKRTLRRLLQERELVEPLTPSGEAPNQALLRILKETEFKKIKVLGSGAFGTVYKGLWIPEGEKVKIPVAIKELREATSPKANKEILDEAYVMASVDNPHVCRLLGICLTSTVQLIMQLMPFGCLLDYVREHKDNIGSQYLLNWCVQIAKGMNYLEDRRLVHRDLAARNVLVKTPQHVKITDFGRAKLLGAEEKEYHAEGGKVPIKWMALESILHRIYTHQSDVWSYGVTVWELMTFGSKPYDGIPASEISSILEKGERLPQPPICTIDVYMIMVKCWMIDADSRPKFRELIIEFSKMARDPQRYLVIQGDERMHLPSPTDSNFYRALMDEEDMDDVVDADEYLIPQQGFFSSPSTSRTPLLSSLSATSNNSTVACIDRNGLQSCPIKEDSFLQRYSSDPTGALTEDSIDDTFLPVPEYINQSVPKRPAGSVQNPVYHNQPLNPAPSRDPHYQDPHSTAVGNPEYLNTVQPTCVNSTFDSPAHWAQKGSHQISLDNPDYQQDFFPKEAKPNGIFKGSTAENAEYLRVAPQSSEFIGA
pIC50: −log10 of the molar value.
The label depends only on pIC50: fulfilled if it is at least 8, not fulfilled if it is smaller.

molecule="Cc1cc2cc(n1)-c1cnn(C)c1OCCN1CC3CCC(C3)(C1)n1c(nc3ccc(N4CC5CC4CN5C)cc31)NC2=O (single isomer, unassigned) [Example B53A]" group="not fulfilled"
molecule="Cc1cc2cc(n1)-c1cnn(C)c1OCCN1CC3CCC(CC3)(C1)n1c(nc3ccc(N(C)CCCN(C)C)cc31)NC2=O [Example B33]" group="not fulfilled"
molecule="Cc1cc2cc(n1)-c1cnn(C)c1OCCN1CC3CCC(C3)(C1)n1c(nc3ccccc31)NC2=O (single isomer, unassigned) [Example B8A]" group="not fulfilled"

Given the entry Cc1cc2cc(n1)-c1cnn(C)c1OCCC[C@@H](C)Cn1c(nc3ccc4c(c31)CCN(CCN(C)C)C4)NC2=O [Example B12] , answer whether its pIC50 meets or surpasses 8.
fulfilled

Given the entry Cc1cc2cc(n1)-c1cnn(C)c1OCCCCCn1c(nc3ccc4c(c31)CCNC4)NC2=O [Example B16] , answer whether its pIC50 meets or surpasses 8.
not fulfilled

Given the entry Cc1cc2cc(n1)-c1cnn(C)c1OCCN1CC3CCC(C3)(C1)n1c(nc3ccc(N4CCN(C5COC5)CC4)cc31)NC2=O (single isomer, unassigned) [Example B58A] , answer whether its pIC50 meets or surpasses 8.
not fulfilled

Given the entry Cc1cc2cc(n1)-c1cnn(C)c1OCCN1CC3CCC(C3)(C1)n1c(nc3ccc(N4CCC(N5CCN(C)CC5)C4)cc31)NC2=O (single isomer, unassigned) [Example B49A] , answer whether its pIC50 meets or surpasses 8.
not fulfilled

Given the entry Cc1cc2cc(n1)-c1cnn(C)c1OCCN1CC3CCC(C3)(C1)n1c(nc3ccc(N4CC5CN(C)CC5C4)cc31)NC2=O (single isomer, unassigned) [Example B43B] , answer whether its pIC50 meets or surpasses 8.
fulfilled
